- Test system: K98450-129-R-PDC complex spheroid growth, percent test/control
- experimental protocol: Anticancer human tumor K98450-129-R-PDC patient-derived colon adenocarcinoma cell line growth inhibition [RAS]
- experimental conditions: curve of first compound; second compound 0.000949 µM
measure name: IC50

CC(C)NCC(C(=O)N1CCN(c2ncnc3c2C(C)CC3O)CC1)c1ccc(Cl)cc1 (configuration not stated) + CCn1c(-c2cc(N3CCN(C)CC3)cnc2C(C)OC)c2c3cc(ccc31)-c1csc(n1)CC(NC(=O)C1CC1C)C(=O)N1CCCC(N1)C(=O)OCC(C)(C)C2 | > 10000 nM

For this compound ( CCc1c2c(nc3ccc(O)cc13)-c1cc3c(c(=O)n1C2)COC(=O)[C@]3(O)CC + CCn1c(-c2cc(N3CCN(C)CC3)cnc2C(C)OC)c2c3cc(ccc31)-c1csc(n1)CC(NC(=O)C1CC1C)C(=O)N1CCCC(N1)C(=O)OCC(C)(C)C2 ), measured IC50 is 83.6 nM

----------
Please respond with reported viability, T/C for every item in the list.
- System: K98450-129-R-PDC complex spheroid growth, percent test/control
- experimental protocol: Anticancer human tumor K98450-129-R-PDC cell line growth inhibition [RAS];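 note: spheroids exposed to agents for seven days before the viability readout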;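 for viability, T/C: luminescence used as a proxy for viable cell amount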
- experimental conditions: second compound 0.0316 µM; first compound 10 µM; stronger effect = lower value

CC(=O)OC12COC1CC(O)C1(C)C(=O)C(O)C3=C(C)C(OC(=O)C(O)C(NC(=O)OC(C)(C)C)c4ccccc4)CC(O)(C(OC(=O)c4ccccc4)C21)C3(C)C (configuration not stated) + C=CC(=O)N1CCN(c2nc(OCC3CCCN3C)nc3c(F)c(-c4nc(N)cc(C)c4C(F)(F)F)c(Cl)cc23)C(C)C1 | 15.6%

Next compound, viability, T/C to be filled in.
Just so you know, measured viability, T/C for CC(C)NCC(C(=O)N1CCN(c2ncnc3c2C(C)CC3O)CC1)c1ccc(Cl)cc1 (configuration not stated) + C#Cc1c(F)ccc2cc(O)cc(-c3ncc4c(N5CC6CCC(C5)N6)nc(OCC56CCCN5CC(F)C6)nc4c3F)c12 came out at 96.7%

----------
- Test system: K98450-129-R-PDC complex spheroid growth, percent test/control
- experimental protocol: Anticancer human tumor K98450-129-R-PDC cell line growth inhibition [RAS];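 note: spheroids exposed to agents for seven days before the viability readout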;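 for viability, T/C: luminescence used as a proxy for viable cell amount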
- experimental conditions: second compound 0.0949 µM; first compound 0.00316 µM; stronger effect = lower value
measure name: viability, T/C

Below are worked cases with known answers.
CC(C)n1nc(-c2ccc3oc(N)nc3c2)c2c(N)ncnc21 + CCn1c(-c2cc(N3CCN(C)CC3)cnc2C(C)OC)c2c3cc(ccc31)-c1csc(n1)CC(NC(=O)C1CC1C)C(=O)N1CCCC(N1)C(=O)OCC(C)(C)C2 | 17.9%
C=CC(=O)N1CCN(c2nc(OCC3CCCN3C)nc3c(F)c(-c4nc(N)cc(C)c4C(F)(F)F)c(Cl)cc23)C(C)C1 (centres undefined) + CCn1c(-c2cc(N3CCN(C)CC3)cnc2C(C)OC)c2c3cc(ccc31)-c1csc(n1)CC(NC(=O)C1CC1C)C(=O)N1CCCC(N1)C(=O)OCC(C)(C)C2 | 16.1%
C=CC(=O)Nc1cc(Nc2nccc(-c3cn(C)c4ccccc34)n2)c(OC)cc1N(C)CCN(C)C + CCn1c(-c2cc(N3CCN(C)CC3)cnc2C(C)OC)c2c3cc(ccc31)-c1csc(n1)CC(NC(=O)C1CC1C)C(=O)N1CCCC(N1)C(=O)OCC(C)(C)C2 | 21%

Short answer for O=C(c1ccc(F)c(F)c1Nc1ccc(I)cc1F)N1CC(O)([C@@H]2CCCCN2)C1 + CCn1c(-c2cc(N3CCN(C)CC3)cnc2C(C)OC)c2c3cc(ccc31)-c1csc(n1)CC(NC(=O)C1CC1C)C(=O)N1CCCC(N1)C(=O)OCC(C)(C)C2 : viability, T/C was 14.9%
